This section presents compounds with their documented Bliss excess values.
# System: COR-L88 (Small Cell Lung Carcinoma)
# Method Notes: Bliss excess, mean over the matrix (fraction); higher = more synergy
Respond with the number and no other words.

Sample answers from the record:
- Compound: "CC1(C)CCC(CN2CCN(c3ccc(C(=O)NS(=O)(=O)c4ccc(NCC5CCOCC5)c([N+](=O)[O-])c4)c(Oc4cnc5[nH]ccc5c4)c3)CC2)=C(c2ccc(Cl)cc2)C1 [Venetoclax] + CN(C)CCCOc1ccc(-c2ccc3ncc4c(c3c2)n(C2CCOCC2)c(=O)n4C)cn1 [AZD0156] (first compound max 1 µM, 7x7, partner max 1 µM)"
  Experimental Result: -0.0237
- Compound: "NC1(C(=O)N[C@@H](CCO)c2ccc(Cl)cc2)CCN(c2ncnc3[nH]ccc23)CC1 [Capivasertib] + CC(=O)c1c(C)c2cnc(Nc3ccc(N4CCNCC4)cn3)nc2n(C2CCCC2)c1=O [Palbociclib] (first compound max 10 µM, 7x7, partner max 10 µM)"
  Experimental Result: -0.0113
- Compound: "C=CCn1c(=O)c2cnc(Nc3ccc(N4CCN(C)CC4)cc3)nc2n1-c1cccc(C(C)(C)O)n1 [AZD1775] + C[C@@H]1COCCN1C2=NC(=NC(=C2)C3(CC3)[S@](=N)(=O)C)C4=C5C=CNC5=NC=C4 [AZD6738] (first compound max 1 µM, partner max 10 µM)"
  Experimental Result: 0.04

As a next step, examine the compound that follows.
In plain terms, CCN(CCO)CCCOc1ccc2c(Nc3cc(CC(=O)Nc4cccc(F)c4)[nH]n3)ncnc2c1 [AZD2811] + C[C@@H]1COCCN1C2=NC(=NC(=C2)C3(CC3)[S@](=N)(=O)C)C4=C5C=CNC5=NC=C4 [AZD6738] (first compound max 1 µM, 7x7, partner max 10 µM) has a documented Bliss excess of -0.0598

* * *

# System: TUR (Acute Myeloid Leukemia)
# Method Notes: combination Emax (second highest fraction inhibited in the dose matrix, 72 h); higher = more inhibition; extreme values may be limits of the assay
This section presents compounds with their documented combination Emax values.
Respond with the number and no other words.

Sample answers from the record:
- Compound: "CN(C)CCCOc1ccc(-c2ccc3ncc4c(c3c2)n(C2CCOCC2)c(=O)n4C)cn1 [AZD0156] + C=CCn1c(=O)c2cnc(Nc3ccc(N4CCN(C)CC4)cc3)nc2n1-c1cccc(C(C)(C)O)n1 [AZD1775] (first compound max 1 µM, partner max 1 µM)"
  Experimental Result: 0.772
- Compound: "Cc1c2c(nn1C)CSCc1cc(n(C)n1)CSc1cc(c3ccccc3c1)OCCCc1c(C(=O)O)n(C)c3c-2c(Cl)ccc13 [AZD5991] + CN(C)CCCOc1ccc(-c2ccc3ncc4c(c3c2)n(C2CCOCC2)c(=O)n4C)cn1 [AZD0156] (first compound max 1 µM, 7x7, partner max 1 µM)"
  Experimental Result: 0.477
- Compound: "COc1cc2ncnc(Nc3ccc(F)c(Cl)c3)c2cc1OCCCN1CCOCC1 [Gefitinib] + CC(C)n1c(=O)n(C)c2cnc3cc(F)c(-c4ccc(OCCCN5CCCCC5)nc4)cc3c21 [AZD1390] (first compound max 10 µM, 7x7, partner max 0.3 µM)"
  Experimental Result: 0.293

As a next step, examine the compound that follows.
In plain terms, CC1(C)CCC(CN2CCN(c3ccc(C(=O)NS(=O)(=O)c4ccc(NCC5CCOCC5)c([N+](=O)[O-])c4)c(Oc4cnc5[nH]ccc5c4)c3)CC2)=C(c2ccc(Cl)cc2)C1 [Venetoclax] + Cn1cnc2c(F)c(Nc3ccc(Br)cc3Cl)c(C(=O)NOCCO)cc21 [Selumetinib] (first compound max 1 µM, 7x7, partner max 3 µM) has a documented combination Emax of 0.179

* * *

# Tested on: Raji (Burkitt's Lymphoma)
# Method Notes: Bliss excess, mean over the matrix (fraction); higher = more synergy
Measured Endpoint: Bliss excess
Respond with the number and no other words.

- Compound: "NC1(C(=O)N[C@@H](CCO)c2ccc(Cl)cc2)CCN(c2ncnc3[nH]ccc23)CC1 [Capivasertib] + Cn1cnc2c(F)c(Nc3ccc(Br)cc3Cl)c(C(=O)NOCCO)cc21 [Selumetinib] (first compound max 10 µM, 7x7, partner max 10 µM)"
  Bliss excess: 0.0036
- Compound: "Cc1c2c(nn1C)CSCc1cc(n(C)n1)CSc1cc(c3ccccc3c1)OCCCc1c(C(=O)O)n(C)c3c-2c(Cl)ccc13 [AZD5991] + Cn1cnc2c(F)c(Nc3ccc(Br)cc3Cl)c(C(=O)NOCCO)cc21 [Selumetinib] (first compound max 1 µM, 7x7, partner max 3 µM)"
  Bliss excess: 0.0082
- Compound: "Cn1cnc2c(F)c(Nc3ccc(Br)cc3Cl)c(C(=O)NOCCO)cc21 [Selumetinib] + CCN(CCO)CCCOc1ccc2c(Nc3cc(CC(=O)Nc4cccc(F)c4)[nH]n3)ncnc2c1 [AZD2811] (first compound max 10 µM, 7x7, partner max 1 µM)"
  Bliss excess: -0.0166
- Compound: "CC1(C)CCC(CN2CCN(c3ccc(C(=O)NS(=O)(=O)c4ccc(NCC5CCOCC5)c([N+](=O)[O-])c4)c(Oc4cnc5[nH]ccc5c4)c3)CC2)=C(c2ccc(Cl)cc2)C1 [Venetoclax] + Cn1cnc2c(F)c(Nc3ccc(Br)cc3Cl)c(C(=O)NOCCO)cc21 [Selumetinib] (first compound max 1 µM, 7x7, partner max 3 µM)"
  Bliss excess: -0.003
- Compound: "CN(CCO)CC[C@H](CSc1ccccc1)Nc1ccc(S(=O)(=O)NC(=O)c2ccc(N3CCC([C@@H](O)c4ccccc4-c4ccc(Cl)cc4)CC3)cc2)cc1S(=O)(=O)C(F)(F)F [AZD4320] + C1CN(CCC1(C(=O)N[C@@H](CCO)C2=CC=C(C=C2)Cl)N)C3=NC=NC4=C3C=CN4 [Capivasertib] (first compound max 1 µM, 7x7, partner max 3 µM)"
  Bliss excess: -0.0109
- Compound: "COc1cccc(OCCCN)c1-c1cc(Nc2cnc(C#N)cn2)n[nH]1 [Prexasertib] + C=CCn1c(=O)c2cnc(Nc3ccc(N4CCN(C)CC4)cc3)nc2n1-c1cccc(C(C)(C)O)n1 [AZD1775] (first compound max 1 µM, partner max 1 µM)"
  Bliss excess: 0.0907

As a next step, examine the compound that follows.
In plain terms, CC(=O)c1c(C)c2cnc(Nc3ccc(N4CCNCC4)cn3)nc2n(C2CCCC2)c1=O [Palbociclib] + Cn1cnc2c(F)c(Nc3ccc(Br)cc3Cl)c(C(=O)NOCCO)cc21 [Selumetinib] (first compound max 10 µM, 7x7, partner max 10 µM) has a documented Bliss excess of -0.0103

* * *

# Tested on: GAK (Melanoma)
# Method Notes: combination Emax (second highest fraction inhibited in the dose matrix, 72 h); higher = more inhibition; extreme values may be limits of the assay
Measured Endpoint: combination Emax
Respond with the number and no other words.

- Compound: "C=CCn1c(=O)c2cnc(Nc3ccc(N4CCN(C)CC4)cc3)nc2n1-c1cccc(C(C)(C)O)n1 [AZD1775] + Nc1ccn([C@@H]2O[C@H](CO)[C@@H](O)C2(F)F)c(=O)n1 [Gemcitabine] (first compound max 1 µM, partner max 0.3 µM)"
  combination Emax: 0.612
- Compound: "CN(CCO)CC[C@H](CSc1ccccc1)Nc1ccc(S(=O)(=O)NC(=O)c2ccc(N3CCC([C@@H](O)c4ccccc4-c4ccc(Cl)cc4)CC3)cc2)cc1S(=O)(=O)C(F)(F)F [AZD4320] + C[C@@H](Nc1cc(F)cc(F)c1)c1cc(C(=O)N(C)C)cc2c(=O)cc(N3CCOCC3)oc12 [AZD8186] (first compound max 1 µM, 7x7, partner max 3 µM)"
  combination Emax: 0.312
- Compound: "C=CCn1c(=O)c2cnc(Nc3ccc(N4CCN(C)CC4)cc3)nc2n1-c1cccc(C(C)(C)O)n1 [AZD1775] + O=C(c1cc(Cc2n[nH]c(=O)c3ccccc23)ccc1F)N1CCN(C(=O)C2CC2)CC1 [Olaparib] (first compound max 1 µM, partner max 10 µM)"
  combination Emax: 0.804
- Compound: "CN(CCO)CC[C@H](CSc1ccccc1)Nc1ccc(S(=O)(=O)NC(=O)c2ccc(N3CCC([C@@H](O)c4ccccc4-c4ccc(Cl)cc4)CC3)cc2)cc1S(=O)(=O)C(F)(F)F [AZD4320] + Nc1ccn([C@@H]2O[C@H](CO)[C@@H](O)C2(F)F)c(=O)n1 [Gemcitabine] (first compound max 1 µM, 7x7, partner max 0.3 µM)"
  combination Emax: 0.583

As a next step, examine the compound that follows.
In plain terms, C[C@@H](Oc1cc(-c2cnn(C3CCNCC3)c2)cnc1N)c1c(Cl)ccc(F)c1Cl [Crizotinib] + CC1=C(C(=CC=C1)Cl)NC(=O)C2=CN=C(S2)NC3=CC(=NC(=N3)C)N4CCN(CC4)CCO [Dasatinib] (first compound max 10 µM, 7x7, partner max 2 µM) has a documented combination Emax of 0.694

* * *

# System: NMC-G1 (Low Grade Glioma)
# Method Notes: Bliss excess, mean over the matrix (fraction); higher = more synergy
Measured Endpoint: Bliss excess

- Molecule: "C[C@@H]1COCCN1c1cc(C2([S@](C)(=N)=O)CC2)nc(-c2ccnc3[nH]ccc23)n1 [AZD6738] + O=C(c1cc(Cc2n[nH]c(=O)c3ccccc23)ccc1F)N1CCN(C(=O)C2CC2)CC1 [Olaparib] (first compound max 10 µM, 7x7, partner max 10 µM)"
  Bliss excess: 0.0071

As a next step, examine the molecule that follows.
In plain terms, Cc1c2c(nn1C)CSCc1cc(n(C)n1)CSc1cc(c3ccccc3c1)OCCCc1c(C(=O)O)n(C)c3c-2c(Cl)ccc13 [AZD5991] + C[C@@H](Nc1cc(F)cc(F)c1)c1cc(C(=O)N(C)C)cc2c(=O)cc(N3CCOCC3)oc12 [AZD8186] (first compound max 1 µM, 7x7, partner max 3 µM) has a documented Bliss excess of -0.059
